# test_summary: Cellular toxicity in Jurkat cells (live dead stain Hoechst 33258, FACS)
# Format: cell-based
# experimental_setup: human; Jurkat cells; read-out: CC50
reported_endpoint: CC50

- molecule: "Cc1nnc(C(=O)NC(C)(C)c2nc(C(=O)NCc3ccc(F)cc3)c(O)c(=O)n2C)o1 [Raltegravir, raltegravir]"
  endpoint_value: "> 20 µM"

* * *

# measurement_target: HTLV-1 integrase (Human T-cell leukemia virus 1)
# Construct: Full-length wild type HTLV-1 IN was recombinantly expressed, purified, and characterized; SUMO (pET28a-SUMO fusion) (N); made in house
# Sequence (P03362 1168-1462): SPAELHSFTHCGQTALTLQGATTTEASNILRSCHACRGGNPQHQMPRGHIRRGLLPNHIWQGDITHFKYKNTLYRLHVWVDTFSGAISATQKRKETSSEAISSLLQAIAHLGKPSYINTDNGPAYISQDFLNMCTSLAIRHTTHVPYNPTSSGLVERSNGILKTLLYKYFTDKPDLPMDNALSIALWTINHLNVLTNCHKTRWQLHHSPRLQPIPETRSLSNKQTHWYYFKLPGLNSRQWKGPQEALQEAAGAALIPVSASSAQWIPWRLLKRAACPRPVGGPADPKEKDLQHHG
# test_summary: In vitro HTLV-1 integrase strand transfer assay (concerted integration, agarose gel densitometry)
# Type: biochemical
pIC50: −log10 of the molar value.
reported_endpoint: pIC50

- compound: "COc1cc2c(cc1Cc1cccc(Cl)c1F)c(=O)c(C(=O)O)cn2[C@H](CO)C(C)C [Elvitegravir, elvitegravir]"
  measurement_target: "HTLV-1 integrase (Human T-cell leukemia virus 1)"
  endpoint_value: 7.00
- compound: "Cc1nnc(C(=O)NC(C)(C)c2nc(C(=O)NCc3ccc(F)cc3)c(O)c(=O)n2C)o1 [Raltegravir, raltegravir]"
  measurement_target: "HTLV-1 integrase (Human T-cell leukemia virus 1)"
  endpoint_value: 6.28

Data origin, for the record: paper PMC6705210
